Let's look at some variants and their measured self-cleavage.
B1: OR4K15 (parent)
chain: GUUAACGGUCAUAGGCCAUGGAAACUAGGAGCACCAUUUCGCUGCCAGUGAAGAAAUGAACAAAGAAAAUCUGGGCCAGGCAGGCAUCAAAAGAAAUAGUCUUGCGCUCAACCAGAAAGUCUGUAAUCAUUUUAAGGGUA

Variants of: B1
assayRemarks: self-cleavage, relative activity (ratio to wild type); higher = more cleavage; in vitro, sequencing; the parent is a self-cleaving ribozyme
propertyName: self-cleavage

| constructSequence | observedMeasurement |
| --- | --- |
| GUUAACGGUCAUAGGCCAUGGAAACUAGGAGCACCAUUUCGCUGCCAGUGAAGAAAUGAACAGAGAAAAUCUGGGCCAGGCAGGCAUCAAAAGAAAUAGUCUUGCGCUCAGCCAGAAAGUCUGUAAUCAUUUUAAGGGUA [A63G A111G] | 0.02 |
| GUUAACGGUCAUAGGCCAUGGAAACUAGGAGCACCAUUUCGCUGCCAGUGAAGAAAUGAACAAAGAAAAUCUGGGCCAGGCAGGCACCAAAAGAAAUAGUAUUGCGCUCAACCAGAAAGUCUGUAAUCAUUUUAAGGGUA [U87C C101A] | 0.14 |
| GUUAACGGUCUUAGGCCAUGGAAACUAGGAGCACCAUUUCGCUGCCAGUGAAGAAACGAACAAAGAAAAUCUGGGCCAGGCAGGCAUCAAAAGAAAUAGUCUUGCGCUCAACCAGAAAGUCUGUAAUCAUUUUAAGGGUA [A11U U57C] | 0.73 |
| GUUAACGGUCAUAGGCCAUGGAAACUAGGAGCACCAUCUCGCUGCCCGUGAAGAAAUGAACAAAGAAAAUCUGGGCCAGGCAGGCAUCAAAAGAAAUAGUCUUGCGCUCAACCAGAAAGUCUGUAAUCAUUUUAAGGGUA [U38C A47C] | 1.99 |
| GUUAACGGUCAUAGGCCAUGGAAACUAGGAGCACCAUUUCGCUGCCAGUGAAGAAAUGAACAAAGAAAAUCUGGGCCAGGCGGGCAUCAAAAGAAAUAGUCUUGCGCUCGACCAGAAAGUCUGUAAUCAUUUUAAGGGUA [A82G A110G] | 0.07 |
| GUUAACGGUCAUAGGCCAUGGAAACUAGGAGCACCAUUUCGCUGCCAGUGAAGAAAUGAACAAAGAAAAACUGGGCCAGGCAGGCAUCAAAAGAAAUAGUCUUGCGCUCAACCAGAAAGUCUGUAAUCAUUUUAAGGGUA [U70A] | 0.83 |
| GUUAACGGUCAUAGGCUAUGGAAACUAGGAGCACCAUUUCGCUGCCAGUGAAGAAAUGAACGAAGAAAAUCUGGGCCAGGCAGGCAUCAAAAGAAAUAGUCUUGCGCUCAACCAGAAAGUCUGUAAUCAUUUUAAGGGUA [C17U A62G] | 0.91 |
| GUUAACGGUCAUAGGCCAUGGAAACUAGGAGCACCAUUUCGCUGCCAGUGAAGAAAUGAACAAAGAAAAUCUGGGCCAGGCAGGCAUCAAAAGAAAUAGUCUUGCGCUCAACCAGAAAGUCUGUAAUCAUUUUAAGGGGA [U139G] | 1.1 |
| GUUAACGGUCAUAGGCCAUGGAAGCUAGGAGCACCAUUUCGCUGCCAGUGAAGAAAUGAACAAAGAAAAUCUGGGCCAGGCAGGCAUCAAAAGAAAUAGUCUUGCGCUCGACCAGAAAGUCUGUAAUCAUUUUAAGGGUA [A24G A110G] | 0.17 |
| GUCAACGGUCAUAGGCCAUGGAAACUAGGAGCACCAUUUCGCUGCCAGUGGAGAAAUGAACAAAGAAAAUCUGGGCCAGGCAGGCAUCAAAAGAAAUAGUCUUGCGCUCAACCAGAAAGUCUGUAAUCAUUUUAAGGGUA [U3C A51G] | 1.12 |
| GUUGACGGUCAUAGGCCAUGGAAACUAGGAGCACCAUCUCGCUGCCAGUGAAGAAAUGAACAAAGAAAAUCUGGGCCAGGCAGGCAUCAAAAGAAAUAGUCUUGCGCUCAACCAGAAAGUCUGUAAUCAUUUUAAGGGUA [A4G U38C] | 1.15 |
| GUUAACGGUCUUAGGCCACGGAAACUAGGAGCACCAUUUCGCUGCCAGUGAAGAAAUGAACAAAGAAAAUCUGGGCCAGGCAGGCAUCAAAAGAAAUAGUCUUGCGCUCAACCAGAAAGUCUGUAAUCAUUUUAAGGGUA [A11U U19C] | 1.85 |
| GUUAACGGUCAUAGGACAUGGAAACUAGGAGCACCAUUUCGCUGCCAGUGAAGAAGUGAACAAAGAAAAUCUGGGCCAGGCAGGCAUCAAAAGAAAUAGUCUUGCGCUCAACCAGAAAGUCUGUAAUCAUUUUAAGGGUA [C16A A56G] | 0.41 |
| GUUAACGGUCAUAGGCCAUGGAAACUAGGAGCACCAUUUCGCUGCCAGUGAAGAAAUGAACAAAGAAAAUCUGGGCCAGGCAGGCGUCAAAAGAAAUAGUCUCGCGCUCAACCAGAAAGUCUGUAAUCAUUUUAAGGGUA [A86G U103C] | 0.45 |
| GUUAACGGUCAUAGGCCAUGGAAACUAGGAGCACCAUUUCGCUGCCAGUGAAGAAAUGAACAAAGAAAAUUUGGGCCAGGCAGGCAUCAAAAGAAAUAGUCUUGCGCUCAACCAGAAAGUCUGUAGUCAUUUUAAGGGUA [C71U A126G] | 0.32 |
| GUUAACGGUCAUAGGCCAUGGAAACUAGGAGCACCAUUUUGCUGCCAGUGAAGAAAUGAACAAAGAAAAUCUGGGCCAGGCAGGCAUCAAAAGAAAUAGUCUUGCGCUCAACCAGGAAGUCUGUAAUCAUUUUAAGGGUA [C40U A116G] | 1.57 |
| GUUAACGGUCAUAGGCCAUGGAAACUAGGAGCACCAUUUCGCUGCCAGUGAAGAAAUGAACAAAGAAAAUCUGGGCCAGGCCGGCAUCAAAAGAAAUAGUCUUGUGCUCAACCAGAAAGUCUGUAAUCAUUUUAAGGGUA [A82C C105U] | 0.02 |
| GUUAACGGUCAUAGGCCAUGGAAACUAGGAGCACCAUUUCGCUGCCAGUGAAGAAAUGAACAAAGAAAAUCUGGGCCAGGCAGGCAUCAAAAGAAAUAGUCUUGCGCUCAACCAGAAAGUCUGUAAUCUUUUUUAGGGUA [A129U A134U] | 1.18 |
| GUUAACGGUCAUAGGCCAUGGAAACUAGGAGCACCAUUUCGCUGCCAGUGAAGAAAUGAACAAAGAAAAUCAGGGCCAGGCAGGCAUCAAAAGAAAUAGUCUUGCGCUCAACCAGAAAGUCUGUAAUCAUUUUAUGGGUA [U72A A135U] | 0.14 |
| GUUAACGGUCAUAGGCCAUGGAAACUAGGAGCACCAUUUCGCUGCCAGUGGAGAAAUGAACAAAGAAAAUCUGGGCCAGGCAGGCAUCAAAAGAAAUAGUCUUGCGCUCAACCAGAAAGUCUGUAAUCAUCUUAAGGGUA [A51G U131C] | 1.25 |
| GUUAACGGUCAUAGGCCAUGGAAACUAGGAGCACCAUUUCGCUACCAGUGAAGAAAUGAACAAAGAAAAUCUGGGCUAGGCAGGCAUCAAAAGAAAUAGUCUUGCGCUCAACCAGAAAGUCUGUAAUCAUUUUAAGGGUA [G44A C77U] | 2.17 |
| GUUAACGGUCAUAGGCCAUGGAAACUAGGAGCACCAUUUCGCUGCCAGUGAAGAAAUGAACAAAGAAAAUCUGGGCCAGGCAGGCAUCAAAAGAAAUAGUCUUGCGCUCAACCUGAAAGUCUGUAAUCACUUUAAGGGUA [A114U U130C] | 0.01 |
